Target: Cloned human M1 receptor (CHRM1) (Homo sapiens)
Sequence (P11229 1-460): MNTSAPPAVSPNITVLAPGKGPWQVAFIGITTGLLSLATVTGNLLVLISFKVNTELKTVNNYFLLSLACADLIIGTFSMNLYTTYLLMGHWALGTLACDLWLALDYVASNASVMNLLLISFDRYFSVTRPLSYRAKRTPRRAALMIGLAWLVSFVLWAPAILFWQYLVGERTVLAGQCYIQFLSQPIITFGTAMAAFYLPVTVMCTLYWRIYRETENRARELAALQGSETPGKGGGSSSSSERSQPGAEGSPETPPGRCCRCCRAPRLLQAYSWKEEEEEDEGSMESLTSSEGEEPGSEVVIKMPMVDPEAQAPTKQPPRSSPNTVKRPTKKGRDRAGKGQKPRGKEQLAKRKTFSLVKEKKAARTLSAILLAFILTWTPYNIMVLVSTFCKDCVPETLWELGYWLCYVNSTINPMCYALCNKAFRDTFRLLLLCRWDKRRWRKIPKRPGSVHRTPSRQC
Experiment: CHRM1 Ca++ Flux Assay (HEK293 M1 cells, agonist mode)
Conditions: geometric mean if tested more than once, read-out: M1 FDSS EC50
endpoint: EC50
Please provide the amount together with its unit, number first.

| compound | EC50 |
| --- | --- |
| Fc1ccc(OC[C@@H]2CCOC2)c(C2CCN([C@@H]3COC4(C3)CN(c3nnco3)C4)CC2)c1 [Example 1B] | 598 nM |

For every item in the list below, what is its measured EC50?
1. CC(C)(O)[C@H]1C[C@@H](Oc2ccc(F)cc2C2CCN([C@@H]3COC4(C3)CN(c3ncco3)C4)CC2)C1 (single isomer, unassigned) [Example 4T]
2. Fc1ccc(O[C@@H]2CCOC2)c(C2CCN([C@@H]3COC4(C3)CN(c3ncco3)C4)CC2)c1 [Example 4D]
3. c1ccc(C2CCN([C@@H]3COC4(C3)CN(c3ncco3)C4)CC2)c(-c2cncnc2)c1 [Example 4R]

1. 909 nM
2. 741 nM
3. 128 nM

Batch request: EC50 per item, same order as input.
1. Fc1ccc(OCC2CC3(COC3)C2)c(C2CCN([C@@H]3COC4(C3)CN(c3nnco3)C4)CC2)c1 [Example 2S]
2. O[C@H]1CC[C@@H](c2ccc(F)cc2C2CCN([C@@H]3COC4(C3)CN(c3nnco3)C4)CC2)CC1 (single isomer, unassigned) [Example 3H]
3. COCCOc1ccc(F)cc1C1CCN([C@@H]2COC3(C2)CN(c2ncns2)C3)CC1 [Example 5D]
4. c1ccc(C2CCN([C@@H]3COC4(C3)CN(c3ncco3)C4)CC2)c(O[C@@H]2CCOC2)c1 [Example 4F]
5. Fc1ccc(OC2COC2)c(C2CCN([C@@H]3COC4(C3)CN(c3nnco3)C4)CC2)c1 [Example 1A]
6. Fc1cc(F)c(OC2CCOCC2)c(C2CCN([C@@H]3COC4(C3)CN(c3nnco3)C4)CC2)c1 [Example 2BB]
7. Fc1cc(OCC2COC2)c(C2CCN([C@@H]3COC4(C3)CN(c3ncco3)C4)CC2)cc1F [Example 4O]

["5410 nM", "2410 nM", "1150 nM", "540 nM", "210 nM", "7000 nM", "364 nM"]

Dear reader, for each entry below, please note its EC50.
1. C[C@H](Oc1ccc(F)cc1C1CCN([C@@H]2COC3(C2)CN(c2nnco2)C3)CC1)C1CCOCC1 [Example 2X]
2. Fc1ccc(OC[C@H]2CCO2)c(C2CCN([C@@H]3COC4(C3)CN(c3nncs3)C4)CC2)c1.O=C(O)C(F)(F)F (single isomer, unassigned) [Example 2D]
3. Fc1ccc(OC2CCOCC2)c(C2CCN([C@@H]3COC4(C3)CN(c3ncco3)C4)CC2)c1 [Example 4E]

1. 11300 nM
2. 289 nM
3. 979 nM

###

Target: Cloned human M1 receptor (CHRM1) (Homo sapiens, UniProt P11229)
Construct: expressed in transfected cells; host or cells: HEK293
Assay: CHRM1 Ca++ Flux Assay (HEK293 M1 cells, agonist mode)
Type: cell-based
Conditions: Percent Activity (PA)
Label 1 (yes) when M1 FDSS PA % is at or above 70%; otherwise label 0 (no).

| compound | category-label |
| --- | --- |
| CC(C)(O)[C@H]1C[C@@H](Oc2ccc(F)cc2C2CCN([C@@H]3COC4(C3)CN(c3ncco3)C4)CC2)C1 (single isomer, unassigned) [Example 4U] | 0 (no) |
| Fc1ccc(OC[C@H]2CCO2)c(C2CCN([C@@H]3COC4(C3)CN(c3nncs3)C4)CC2)c1.O=C(O)C(F)(F)F (single isomer, unassigned) [Example 2C] | 1 (yes) |
| O[C@H]1CC[C@@H](c2ccc(F)cc2C2CCN([C@@H]3COC4(C3)CN(c3nnco3)C4)CC2)CC1 (single isomer, unassigned) [Example 3H] | 1 (yes) |
| OC[C@H]1C[C@H](Oc2ccc(F)cc2C2CCN([C@@H]3COC4(C3)CN(c3nnco3)C4)CC2)C1 (single isomer, unassigned) [Example 2HH] | 1 (yes) |
| c1ccc([C@@H]2CCOC2)c(C2CCN([C@@H]3COC4(C3)CN(c3nnco3)C4)CC2)c1 (single isomer, unassigned) [Example 3B] | 1 (yes) |
| C[C@H](Oc1ccc(F)cc1C1CCN([C@@H]2COC3(C2)CN(c2nnco2)C3)CC1)C1CCOCC1 [Example 2X] | 0 (no) |
| C[C@H](Oc1ccc(F)cc1C1CCN([C@@H]2COC3(C2)CN(c2nnco2)C3)CC1)C1CCOCC1 (single isomer, unassigned) [Example 2Y] | 0 (no) |
| O[C@H]1CC[C@@H](c2ccc(F)cc2C2CCN([C@@H]3COC4(C3)CN(c3nnco3)C4)CC2)CC1 (single isomer, unassigned) [Example 3I] | 1 (yes) |

Please examine the following record next.
Determine whether this compound has M1 FDSS PA % no lower than 70%: c1ccc([C@@H]2CCOC2)c(C2CCN([C@@H]3COC4(C3)CN(c3nnco3)C4)CC2)c1 (single isomer, unassigned) [Example 3A]
1 (yes)

###

Target: human cloned CHRM2 receptor (Homo sapiens)
Sequence (P08172 whole entry): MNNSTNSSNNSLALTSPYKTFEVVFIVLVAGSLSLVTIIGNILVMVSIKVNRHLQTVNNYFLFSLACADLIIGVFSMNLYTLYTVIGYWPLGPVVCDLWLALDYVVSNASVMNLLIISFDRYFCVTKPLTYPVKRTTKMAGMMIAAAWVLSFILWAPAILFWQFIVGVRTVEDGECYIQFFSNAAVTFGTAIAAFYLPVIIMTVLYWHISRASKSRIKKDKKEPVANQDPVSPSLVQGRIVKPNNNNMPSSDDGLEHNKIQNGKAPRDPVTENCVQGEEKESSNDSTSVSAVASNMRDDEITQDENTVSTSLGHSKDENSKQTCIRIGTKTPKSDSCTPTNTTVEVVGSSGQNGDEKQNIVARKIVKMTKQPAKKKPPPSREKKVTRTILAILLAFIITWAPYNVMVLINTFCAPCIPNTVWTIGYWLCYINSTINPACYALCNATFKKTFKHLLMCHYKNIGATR
Assay: CHRM2 Ca++ Flux Assay (M2_CHO cells, agonist mode)
Conditions: M2 CHO cells, agonist mode; geometric mean if tested more than once; read-out: M2 FDSS EC50
Give measured pEC50 for each item. Keep answers brief.
Answers are plain numbers, as −log10 of the molar value.

Solved entries (count: 5):
| compound | pEC50 |
| --- | --- |
| Fc1ccc(OC[C@H]2CCOC2)c(C2CCN([C@@H]3COC4(C3)CN(c3nncs3)C4)CC2)c1 | 5.85 |
| Fc1ccc(OC[C@@H]2COCCO2)c(C2CCN([C@@H]3COC4(C3)CN(c3nnco3)C4)CC2)c1 | 6.41 |
| COCCOc1ccc(F)cc1C1CCN([C@@H]2COC3(C2)CN(c2nncs2)C3)CC1 | 5.34 |
| C[C@H](Oc1ccc(F)cc1C1CCN([C@@H]2COC3(C2)CN(c2nnco2)C3)CC1)C1CCOCC1 [Example 2X] | 4.95 |
| Fc1ccc(OCc2ncccn2)c(C2CCN([C@@H]3COC4(C3)CN(c3nnco3)C4)CC2)c1 | 6.96 |

Hi team, please reply with pEC50 for each item in this list.
1. Fc1ccc(OC2COCOC2)c(C2CCN([C@@H]3COC4(C3)CN(c3nnco3)C4)CC2)c1
2. CC(C)(O)[C@H]1C[C@@H](Oc2ccc(F)cc2C2CCN([C@@H]3COC4(C3)CN(c3ncco3)C4)CC2)C1 (single isomer, unassigned) [Example 4U]
3. O[C@H]1CC[C@@H](c2ccc(F)cc2C2CCN([C@@H]3COC4(C3)CN(c3nnco3)C4)CC2)CC1 (single isomer, unassigned) [Example 3I]
4. Fc1ccc(OC2COC2)c(C2CCN([C@@H]3COC4(C3)CN(c3nncs3)C4)CC2)c1
5. Fc1ccc(O[C@H]2CCCOC2)c(C2CCN([C@@H]3COC4(C3)CN(c3nnco3)C4)CC2)c1 (single isomer, unassigned) [Example 2R]
6. Fc1cc(OCC2(F)COC2)c(C2CCN([C@@H]3COC4(C3)CN(c3ncco3)C4)CC2)cc1F
7. c1ccc(C2CCN([C@@H]3COC4(C3)CN(c3ncco3)C4)CC2)c(-c2cncnc2)c1

[6.12, 4.82, 5.41, 6.18, 6.59, 4.98, 6.69]

// for each compound in input: emit pEC50
1. Fc1ccc(OC2CC3(COC3)C2)c(C2CCN([C@@H]3COC4(C3)CN(c3nnco3)C4)CC2)c1
2. Fc1ccc([C@H]2CCOC2)c(C2CCN([C@@H]3COC4(C3)CN(c3nnco3)C4)CC2)c1 (single isomer, unassigned) [Example 3F]
3. Fc1cc(F)c(OC2CCOCC2)c(C2CCN([C@@H]3COC4(C3)CN(c3nnco3)C4)CC2)c1
4. COc1ccccc1C1CCN([C@@H]2COC3(C2)CN(c2nncs2)C3)CC1
5. c1ccc(C2CCN([C@@H]3COC4(C3)CN(c3nnco3)C4)CC2)c(-c2cncnc2)c1
6. Fc1ccc(O[C@@H]2CCOC2)c(C2CCN([C@@H]3COC4(C3)CN(c3nnco3)C4)CC2)c1
7. c1ccc([C@@H]2CCOC2)c(C2CCN([C@@H]3COC4(C3)CN(c3nnco3)C4)CC2)c1 (single isomer, unassigned) [Example 3B]

1. 5.97
2. 6.39
3. 5.31
4. 5.91
5. 6.28
6. 6.22
7. 5.82

Report pEC50 for every entry below.
1. Fc1ccc(OC[C@H]2CCCO2)c(C2CCN([C@@H]3COC4(C3)CN(c3nnco3)C4)CC2)c1
2. Fc1cc(O[C@@H]2CCOC2)c(C2CCN([C@@H]3COC4(C3)CN(c3nnco3)C4)CC2)cc1F
3. Fc1ccc(O[C@@H]2CCOC2)c(C2CCN([C@@H]3COC4(C3)CN(c3nncs3)C4)CC2)c1
4. Fc1ccc(OC2COC2)c(C2CCN([C@@H]3COC4(C3)CN(c3ncco3)C4)CC2)c1
5. O[C@H]1CC[C@@H](c2ccc(F)cc2C2CCN([C@@H]3COC4(C3)CN(c3nnco3)C4)CC2)CC1 (single isomer, unassigned) [Example 3H]

1: 5.69; 2: 6.44; 3: 6.35; 4: 6.36; 5: 5.61
